src = patent US20240400654A1

Answer each item with its documented OD450 nm.
- TEST_TARGET: HRgpA-6H (Porphyromonas gingivalis) (UniProt P28784)
- ASSAY_REMARKS: ELISA, coated HRgpA-6H
Please reply with the value in numeric form only.

Enquiry: State the recorded OD450 nm for this entry: KB001 mouse Fab VL S28K (Fab, V domains shown) VH: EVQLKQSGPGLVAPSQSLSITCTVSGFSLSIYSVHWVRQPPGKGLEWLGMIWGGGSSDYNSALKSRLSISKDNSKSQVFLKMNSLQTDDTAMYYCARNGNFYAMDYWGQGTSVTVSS VL: QIVLTQSPAIMSASLGERVTMTCTASSKVSSSFLHWYQQKPGSSPQLWIYSTSNLASGVPARFSGSGSGTSYSLTISSMEAEDAATYYCHQYHHSPYIYTFGGGTKLEIK
Return: 0.801

Enquiry: State the recorded OD450 nm for this entry: KB001 mouse Fab VL S32P (Fab, V domains shown) VH: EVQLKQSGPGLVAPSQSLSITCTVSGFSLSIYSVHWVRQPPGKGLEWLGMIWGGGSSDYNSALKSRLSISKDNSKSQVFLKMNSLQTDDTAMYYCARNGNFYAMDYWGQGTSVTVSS VL: QIVLTQSPAIMSASLGERVTMTCTASSSVSSPFLHWYQQKPGSSPQLWIYSTSNLASGVPARFSGSGSGTSYSLTISSMEAEDAATYYCHQYHHSPYIYTFGGGTKLEIK
Return: 0.744

Enquiry: State the recorded OD450 nm for this entry: KB001 mouse Fab VH S30W (Fab, V domains shown) VH: EVQLKQSGPGLVAPSQSLSITCTVSGFSLWIYSVHWVRQPPGKGLEWLGMIWGGGSSDYNSALKSRLSISKDNSKSQVFLKMNSLQTDDTAMYYCARNGNFYAMDYWGQGTSVTVSS VL: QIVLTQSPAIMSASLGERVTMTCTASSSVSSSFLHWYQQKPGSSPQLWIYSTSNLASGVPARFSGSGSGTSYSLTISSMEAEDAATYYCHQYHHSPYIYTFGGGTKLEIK
Return: 0.469
